# tested_system: furin, P09958;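 also: purified furin at 1:10 enzyme:substrate in 50 mM HEPES pH 7.5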
# Sequence (P09958 whole entry): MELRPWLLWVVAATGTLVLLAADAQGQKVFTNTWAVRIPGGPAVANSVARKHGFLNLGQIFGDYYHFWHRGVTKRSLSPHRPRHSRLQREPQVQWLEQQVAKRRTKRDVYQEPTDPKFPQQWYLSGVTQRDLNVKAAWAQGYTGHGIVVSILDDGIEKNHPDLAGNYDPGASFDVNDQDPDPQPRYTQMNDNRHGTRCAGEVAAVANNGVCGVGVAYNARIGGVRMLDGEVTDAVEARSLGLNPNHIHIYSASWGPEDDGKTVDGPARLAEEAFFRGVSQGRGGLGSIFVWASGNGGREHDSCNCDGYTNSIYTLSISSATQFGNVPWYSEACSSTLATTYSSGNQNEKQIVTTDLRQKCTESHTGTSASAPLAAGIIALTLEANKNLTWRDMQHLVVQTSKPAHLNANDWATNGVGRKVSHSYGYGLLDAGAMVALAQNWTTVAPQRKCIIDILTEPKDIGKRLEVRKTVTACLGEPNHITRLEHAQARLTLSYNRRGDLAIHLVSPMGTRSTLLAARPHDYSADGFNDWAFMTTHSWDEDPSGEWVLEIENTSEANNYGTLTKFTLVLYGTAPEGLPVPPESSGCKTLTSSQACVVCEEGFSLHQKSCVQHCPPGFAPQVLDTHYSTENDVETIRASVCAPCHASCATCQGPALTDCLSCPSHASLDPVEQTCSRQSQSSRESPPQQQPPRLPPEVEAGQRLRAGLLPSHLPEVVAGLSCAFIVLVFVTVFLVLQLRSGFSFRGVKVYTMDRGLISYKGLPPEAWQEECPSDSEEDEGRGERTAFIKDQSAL
# method_summary: furin cleavage Z-score vs untreated control; higher = more cleavage, active = 3.5 or more, inactive = 1 or less, 8 variable residues between constant flanks
# test_conditions: 30 min
The other results are listed elsewhere or left out. The hit rate among all sequences tested is not known here.
Labels: 1 (yes) (active), 0 (no) (inactive)

residue_codes: CAMEECSQTLAGNASASA [HC1758]
group: 0 (no)
//
residue_codes: CAKPARVSKDAGNASASA [FS-259]
group: 0 (no)
//
residue_codes: CAGPQRQKKLAGNASASA [FS-1202]
group: 0 (no)
//
residue_codes: CARPARDEGGAGNASASA [FS-2050]
group: 0 (no)
//
residue_codes: CAWHSRRKRLAGNASASA [FS-210]
group: 1 (yes)
//
residue_codes: CAKPARRKRLAGNASASA [FS-44]
group: 1 (yes)
//
residue_codes: CALLCRHKRKAGNASASA [FS-1359]
group: 1 (yes)
//
residue_codes: CASTPCSAHEAGNASASA [HC2572]
group: 0 (no)
//
residue_codes: CARRKRQVYGAGNASASA [FS-3204]
group: 1 (yes)
//
residue_codes: CARQKRSMEEAGNASASA [FS-3260]
group: 1 (yes)
//
residue_codes: CARQKRSINLAGNASASA [FS-2587]
group: 1 (yes)
//
residue_codes: CARGPRGKGKAGNASASA [FS-1893]
group: 0 (no)
//
residue_codes: CAVVCESMSYAGNASASA [HC93]
group: 0 (no)
//
residue_codes: CAFLVGQLFTAGNASASA [HC303]
group: 0 (no)
